System: HT29 colon
Assay: NCI tumour cell line growth inhibition, 48 h
# log10 of TGI per entry
propertyName: log10 of TGI (log10 of the value in µM)

{"molecule": "CC1CCC2(NC1)OC1CC3C4CCC5CC(OC6OC(CO)C(OC7OC(CO)C(O)C(OC8OCC(O)C(O)C8O)C7OC7OC(CO)C(O)C(O)C7O)C(O)C6O)CCC5(C)C4CCC3(C)C1C2C (stereo unspecified)", "propertyName": "log10 of TGI", "testResult": 0.51}
{"molecule": "O=C(/C(=C\\c1ccccc1)CN1CCOCC1)c1ccc(Br)cc1", "propertyName": "log10 of TGI", "testResult": 0.66}
{"molecule": "O=C(/C=C1\\C[C@H]2C=Nc3ccccc3C(=O)N2C1)NCCCNC(=O)/C=C1\\C[C@H]2C=Nc3ccccc3C(=O)N2C1", "propertyName": "log10 of TGI", "testResult": 1.51}
{"molecule": "O=C1C=CC(=O)c2ccc(=O)ccc21", "propertyName": "log10 of TGI", "testResult": 1.70}
{"molecule": "Cc1c(C(=O)O)n(-c2ccc(Cl)cc2)c2ncnc(N)c12", "propertyName": "log10 of TGI", "testResult": 1.71}
{"molecule": "N#CC1(C#N)C2=C(CCCC2)NC(c2ccc(Br)cc2)C1(C#N)C#N (stereo unspecified)", "propertyName": "log10 of TGI", "testResult": 1.00}
{"molecule": "COc1ccc(C2C=C(c3ccccc3)Nc3nnnn32)cc1 (stereo unspecified)", "propertyName": "log10 of TGI", "testResult": 1.53}
{"molecule": "Cn1cc(C2=C(c3cn(CCSC(=N)N)c4ccccc34)C(=O)NC2=O)c2ccccc21", "propertyName": "log10 of TGI", "testResult": 0.72}
{"molecule": "O=c1[nH]nc(Cc2ccccc2)n1/N=C\\CC/C=N\\n1c(Cc2ccccc2)n[nH]c1=O", "propertyName": "log10 of TGI", "testResult": 1.92}
{"molecule": "COc1ccc(/C=N/C2=C(C#N)C(c3ccccc3)c3c(ccc4ccccc34)O2)cc1 (stereo unspecified)", "propertyName": "log10 of TGI", "testResult": 1.18}
{"molecule": "O=C(N=C1N(c2ccccc2)C(=O)C(=O)N1c1ccccc1)c1ccccc1", "propertyName": "log10 of TGI", "testResult": 1.61}
{"molecule": "C=C(C)C(=O)OC1CC2(C)OC(=CC2=O)C(C)CC2OC(=O)C(=C)C12 (stereo unspecified)", "propertyName": "log10 of TGI", "testResult": 1.38}
{"molecule": "CCCCCCC[C@@H](O)CC(=O)NC(CC(C)C)C(=O)NC(CCC(=O)O)C(=O)NC1C(=O)NC(C(C)C)C(=O)NC(CC(C)C)C(=O)NC(CO)C(=O)NC(CC(C)C)C(=O)NC(CO)C(=O)NC(C(C)CC)C(=O)OC1C (stereo partly specified)", "propertyName": "log10 of TGI", "testResult": 1.49}
{"molecule": "O=C(O)c1cc(-c2ccc3c(O)ccc(O)c3c2)ccc1O", "propertyName": "log10 of TGI", "testResult": 1.64}
